Reference for the values: patent US20260242478A1

# targetEntity: T1, Anti-PSMA Fab (SEQ ID NOs: 19, 20)
# T1 construct: Biotinylated and captured on neutravidin coated plates in the phage ELISA; also called 006 PSMA Fab
# testDescription: phage binding ELISA; Fab-coated wells pre-incubated with PSMA antigen as competitor, anti-M13 HRP detection
Where no end group is shown, it is not given here.
measuredAttribute: Anti-PSMA Fab signal in the presence of PSMA
Reply briefly: the number, and no unit.

In the examples that follow, each entry is paired with its recorded Anti-PSMA Fab signal in the presence of PSMA.
[[record]]
binder = "EVHRCIPAWMCTTP (tested as clonal phage supernatant) [Phage-2046]"
valuereported = 0.0934

[[record]]
binder = "VAKWCTPPWMCAWL (cysteine pairing not given here; also: fused to phage pIII, pIII sequence and linker not given here, tested as clonal phage supernatant) [Phage-2048]"
valuereported = 0.197

[[record]]
binder = "VPKWCTPSWMCEST (tested as clonal phage supernatant) [Phage-2043]"
valuereported = 0.0787

[[record]]
binder = "APKLCIPNWMCVSM (tested as clonal phage supernatant) [Phage-2055]"
valuereported = 0.0746


Request: What value of Anti-PSMA Fab signal in the presence of PSMA has been recorded for this entry: VPKWCTPAWMCNWN (tested as clonal phage supernatant) [Phage-2051]
Result: 0.12

Request: What value of Anti-PSMA Fab signal in the presence of PSMA has been recorded for this entry: WLNWCTPEWMCNGF (tested as clonal phage supernatant) [Phage-2056]
Result: 0.147

Request: What value of Anti-PSMA Fab signal in the presence of PSMA has been recorded for this entry: EAIWCVPKWMCEGM (tested as clonal phage supernatant) [Phage-2050]
Result: 0.0786

Request: What value of Anti-PSMA Fab signal in the presence of PSMA has been recorded for this entry: VMPWCIPQWMCVGE (tested as clonal phage supernatant) [Phage-2049]
Result: 0.0873
